target-of-assay: T1, Native human C1r enzyme (Comptech A102) (human, UniProt P00736 18-705)
T1 construct: mature
T1 sequence (looked up): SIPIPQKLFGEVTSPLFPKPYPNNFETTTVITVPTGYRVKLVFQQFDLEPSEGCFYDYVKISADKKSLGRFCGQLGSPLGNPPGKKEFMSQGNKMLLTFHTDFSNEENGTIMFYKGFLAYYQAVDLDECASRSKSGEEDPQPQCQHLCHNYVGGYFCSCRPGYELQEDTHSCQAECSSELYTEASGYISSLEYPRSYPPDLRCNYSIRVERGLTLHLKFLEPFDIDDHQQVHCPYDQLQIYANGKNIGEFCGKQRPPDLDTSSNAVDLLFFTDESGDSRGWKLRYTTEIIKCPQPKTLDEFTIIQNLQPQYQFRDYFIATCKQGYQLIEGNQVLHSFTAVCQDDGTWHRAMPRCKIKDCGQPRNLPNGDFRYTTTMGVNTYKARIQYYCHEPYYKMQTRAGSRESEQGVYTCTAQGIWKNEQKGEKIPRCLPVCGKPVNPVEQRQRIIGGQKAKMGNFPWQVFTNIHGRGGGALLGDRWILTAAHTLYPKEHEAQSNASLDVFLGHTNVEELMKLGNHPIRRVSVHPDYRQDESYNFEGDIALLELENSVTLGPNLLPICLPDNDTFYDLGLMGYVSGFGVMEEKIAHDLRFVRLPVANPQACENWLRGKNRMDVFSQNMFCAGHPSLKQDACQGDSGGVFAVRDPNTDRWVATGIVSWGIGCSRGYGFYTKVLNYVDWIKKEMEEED
protocol-summary: SPR (BIACORE T200, 37 degrees C, pH 7.4), antibody captured by protein A/G, C1r 25 nM as a dimer
readout-kind: binding result

-- ask // binding result lookup, key: COR0058bb-SG1148 (antibody, human IgG1, kappa, V domains shown, Anti-C1r antibody) VH: QSVEESGGRLVTPGTPLTLTCTASGFDISNYNMQWVRQSPGKGLEWIGIIWSGGYTDYANWAKGRFTISATSTTVDLKSTSPTTEDTATYFCARQGANFGDYTVDLWGPGTLVTVSS VL: AYDMTQTPASVEVAVGGTVTIKCQASQSIRSSLAWYQQKPGQRPKLLIYRASTLASGVSSRFKGSGSGTQFTLTISGVECADAATYYCQQGYSNINVDNTFGGGTKVEIKR
-- reply binds

-- ask // binding result lookup, key: COR0338gg-SG1148 (antibody, human IgG1, kappa, V domains shown, Anti-C1r antibody) VH: QSLEESGGGLVQPEGSLTLTCKASGIDFSSNAMCWVRQAPGKGLEWIACIYTGSTTIWYATWAKGRFTISKTSSTTVTLQLNSLTVADTATYFCARRASSSGYAFKLWGPGTLVTVSS VL: DVVMTQTPFSVSAAVGGTVTIKCQASESIYSNLAWYQQKPGQPPNLLIYGASTLESGVPSRFKGSGSGTEFTLTISDLECDDAAIYYCQCTYDDSSTFGGGTKVEIKR
-- reply binds

-- ask // binding result lookup, key: COR0011bb-SG1148 (antibody, human IgG1, kappa, V domains shown, Anti-C1r antibody) VH: QSLEESGGRLVTPGTPLTLTCTASGFTFSGYYMCWVRQTPGKGLEYIGIIASSGNTYYANWAKGRFTISKTSSTTVDLKMTSLTTEDTATYFCAKPESDYVNGMGLWGPGTLVTVSS VL: DIVMTQTPASVSDPVGGTVTIKCQASQSIYNLLSWYQQKPGQRPKLLIYDASKLASGVPSRFKGSGYGTDFTLTISDLGCADAATYYCQSNYGYSRTDDTFFYGFGGGTKVEIKR
-- reply binds

Attribution: patent US20210198347A1
